Tested on: test plant species
method: Post-emergent herbicidal activity test (greenhouse, foliar spray, visual growth reduction)
Type: in vivo
settings: post-emergence, 336 h, yellow nutsedge (Cyperus esculentus), 14 Days After Application, 140 g ai/ha, read-out: Visual Growth Reduction (%) CYPES
From the text: Post-emergent Test: Seeds or nutlets of the desired test plant species were planted in Sun Gro Metro-Mix® 360 planting mixture, which typically has a pH of 6.0 to 6.8 and an organic matter content of about 30 percent, in plastic pots with a surface area of 64 square centimeters. In some aspects, to ensure good germination and healthy plants, a fungicide treatment and/or other chemical or physical treatment was applied. […]
Assign pest or weed control at 140 g/ha to each entry below.

COC(=O)c1nc(-c2c(C=O)cc(OC)c(O)c2Cl)ccc1Cl [F228]	0 to 29%

# map each molecule to its pest or weed control at 140 g/ha
1. COC(=O)c1nc(-c2cc3nonc3cc2Cl)ccc1Cl [F261]
2. COC(=O)c1nc(-c2ccc(OS(C)(=O)=O)cc2Cl)ccc1Cl [F288]
3. COC(=O)c1nc(-c2ccc(C(F)(F)F)c(C)c2)ccc1Cl [F308]
4. COC(=O)c1nc(-c2ccc(C(F)(F)F)c(F)c2)ccc1Cl [F306]

Result:
0 to 29%
0 to 29%
0 to 29%
45 to 59%
